- Test name: Lipid clearance from liver over time after human OTC mRNA LNP (LC-MS)
- Assay type: in vivo
- Cond: 24 h post-dose; IV 0.5 mg/kg human OTC mRNA LNP, male C57BL/6 mice (n = 4)
Value kind: Parent ionizable lipid remaining in liver, Average (nmol/g liver)
Number in nmol/g liver, nothing else.

INSERT INTO assay_data (compound, uom, value_observed) VALUES
  ('CCCCCCCCCCC(CCCCCCC(=O)OCC(CCCCCC)CCCCCCCC)N(CCCCCCC(F)(F)C(=O)OCC(CCCCCC)CCCCCCCC)C(=O)CCCN(C)C (centres unmarked) [Compound 33]', 'nmol/g liver', 58.68),
  ('CCCCCCCCCCN(C(=O)CCCN(C)C)C(CCCCCCCCC)CCCCCCC(F)(F)C(=O)OCCC(CCCCCC)CCCCCC (centres unmarked) [Compound 16]', 'nmol/g liver', 1.33),
  ('CCCCC/C=C\CCCC(CCC/C=C\CCCCC)C(CCC/C=C\CCCCC)OC(=O)CCCCN(C)C (centres unmarked) [Compound 13-B43, reference compound]', 'nmol/g liver', 40.01),
  ('CCCCCCCCCCON(C(=O)CCCN(C)C)C(CCCCCCCCCC)CCCCCCC(=O)OCCC(CCCCC)CCCCC (centres unmarked) [Compound 43]', 'nmol/g liver', 13.50);

Next compound, Parent ionizable lipid remaining in liver, Average to be filled in.
Exam item: What measured Parent ionizable lipid remaining in liver, Average goes with CCCCCCCCCCC(CCCCCCC(=O)OCCC(CCCCC)CCCCC)N(CCCCCCCC(=O)OCCC(CCCCC)CCCCC)C(=O)CCCN(C)C (centres unmarked) [Compound 67] ?
Marked response: 11.31

* * *

- Test name: Particle characteristics of LNPs containing luciferase mRNA and novel ionizable lipids
- Format: physicochemical
- Cond: Table 5; luciferase mRNA LNP 1.6:54.6:32.8:10.9
Value kind: Final Product % EE (%)
Number in %, nothing else.

Consider the following illustrative entries.
INSERT INTO results (compound, value_observed) VALUES
  ('CCCCCCCCCCC(CCCCCC(=O)OCC(CCCCCC)CCCCCCCC)N(CCCN(C)C)C(=O)CCCCCCC(=O)OCC(CCCC)CCCCCC (stereo not shown)', 98),
  ('CCCCCCCCCCON(C(=O)CCCN(C)C)C(CCCCCCCCCC)CCCCCC(=O)OCC(CCCCCC)CCCCCCCC (stereo not shown)', 98),
  ('CCCCCCCCCCC(CCCCCCC(=O)OCC(CCCCCC)CCCCCCCC)N(CCCCCCCCCC)C(=O)CCCN(C)C (stereo not shown)', 99);

Exam item: What measured Final Product % EE goes with CCCCCCCCCCC(CCCCCC(=O)OCC(CCCCCC)CCCCCCCC)N(OCCCN(C)C)C(=O)CCCCCCCCC (stereo not shown) ?
Marked response: 97

* * *

- Tested on: human OTC expression in the liver
- Test name: Dose response of human OTC mRNA LNP, OTC expression in liver (ELISA)
- Format: in vivo
- Cond: 1 mg/kg IV, 24 h, male C57BL/6 mice (n = 4)
Human OTC expression: recorded values

Consider the following illustrative entries.
INSERT INTO results (molecule, value_observed) VALUES
  ('CCCCCCCCCCN(C(=O)CCCN(C)C)C(CCCCCCCCC)CCCCCCC(F)(F)C(=O)OCCC(CCCCCC)CCCCCC (stereo not shown) [Compound 16]', '4127 ng hOTC/mg protein in liver'),
  ('CCCCCCCCCCC(CCCCCCC(=O)OCC(CCCCCC)CCCCCCCC)N(CCCCCCC(F)(F)C(=O)OCC(CCCCCC)CCCCCCCC)C(=O)CCCN(C)C (stereo not shown) [Compound 33]', '2954 ng hOTC/mg protein in liver');

Exam item: What measured Human OTC expression goes with CCCCCCCCCCON(C(=O)CCCN(C)C)C(CCCCCCCCCC)CCCCCCC(=O)OCCC(CCCCC)CCCCC (stereo not shown) [Compound 43] ?
Marked response: 5713 ng hOTC/mg protein in liver

Exam item: Note, next up: CCCCC/C=C\CCCC(CCC/C=C\CCCCC)C(CCC/C=C\CCCCC)OC(=O)CCCCN(C)C (stereo not shown) [Compound 13-B43, reference compound]
Marked response: 6651 ng hOTC/mg protein in liver

* * *

- System: luciferase activity in the liver
- Test name: Luciferase activity in liver after intravenous luciferase mRNA LNP
- Type: in vivo
- Cond: Table 13; 0.5 mg/kg IV, 6 h post-IV administration, BALB/c mice (n = 4)
Luc Activity: recorded values
Number in pg/g liver, nothing else.

INSERT INTO assay_data (molecule, value_observed) VALUES
  ('CCCCCCCCCCC(CCCCCCC(=O)OCCC(CCCCCC)CCCCCC)N(CCCCCCCC(=O)OCCC(CCCCCC)CCCCCC)C(=O)CCCN(C)C (stereo not drawn)', '4.10E+07'),
  ('CCCCCCCCCCN(C(=O)CCCN(C)C)C(CCCCCCCCC)CCCCCCC(F)(F)C(=O)OCCC(CCCCCC)CCCCCC (stereo not drawn)', '4.39E+07');

Exam item: Give luciferase activity in the liver Luc Activity for CCCCCCCCCCON(C(=O)CCCN(C)C)C(CCCCCCCCCC)CCCCCCC(=O)OCCC(CCCCC)CCCCC (stereo not drawn)
Marked response: 1.04E+08

Exam item: Note, next up: CCCCCCCCCCN(C(=O)CCCN(C)C)C(CCCCCCCCC)CCCCCCC(F)(F)C(=O)OCC(CCCCCC)CCCCCCCC (stereo not drawn)
Marked response: 5.52E+07

Exam item: Note, next up: CCCCCCCCCCC(CCCCCCC(=O)OCC(CCCCCC)CCCCCCCC)N(OCCCCCCCCC)C(=O)CCCN(C)C (stereo not drawn)
Marked response: 1.08E+08

Exam item: Note, next up: CCCCCCCCCCC(CCCCCCCC(=O)OCC(CCCCCC)CCCCCCCC)N(CCCCCCCCC(=O)OCC(CCCCCC)CCCCCCCC)C(=O)CCCCN(C)C (stereo not drawn)
Marked response: 2.26E+07

Exam item: Note, next up: CCCCCCCCCCON(C(=O)CCCCN(C)C)C(CCCCCCCCCC)CCCCCCC(=O)OCC(CCCCCC)CCCCCCCC (stereo not drawn)
Marked response: 8.00E+07

Exam item: Note, next up: CCCCCCCCCCN(C(=O)CCCN(C)C)C(CCCCCCCCC)CCCCCCC(F)(F)C(=O)OCCC(CCCCCCC)CCCCCCC (stereo not drawn)
Marked response: 4.32E+07

* * *

- Tested on: luciferase activity in the liver
- Test name: Luciferase activity in liver after intravenous luciferase mRNA LNP
- Assay type: in vivo
- Cond: Table 14; 0.5 mg/kg IV, 6 h post-IV administration, BALB/c mice (n = 4)
Luc Activity: recorded values
Number in pg/g liver, nothing else.

Consider the following illustrative entries.
INSERT INTO assay_data (compound, value_observed) VALUES
  ('CCCCCCCCCCC(CCCCCCCC(=O)OCCC(CCCCC)CCCCC)N(CCCCCCCC(=O)OCCC(CCCCC)CCCCC)C(=O)CCCCN(C)C (stereo not drawn)', '3.64E+07'),
  ('CCCCCCCCCC(CCCCCCC(F)C(=O)OCCC(CCCCC)CCCCC)N(CCCCCC(F)C(=O)OCCC(CCCCC)CCCCC)C(=O)CCCN(C)C (stereo not drawn)', '1.91E+06'),
  ('CCCCCCCCCCN(C(=O)CCCN(C)C)C(CCCCCCCCC)CCCCCCC(F)C(=O)OCCC(CCCCCC)CCCCCC (stereo not drawn)', '2.09E+07'),
  ('CCCCCCCCCCC(CCCCCCC(=O)OCCC(CCCCC)CCCCC)N(CCCCCCCC(=O)OCc1cc(CCCCCC)cc(CCCCCC)c1)C(=O)CCCN(C)C (stereo not drawn)', '2.00E+07');

Exam item: What measured Luc Activity goes with CCCCCCCCCC(CCCCCCC(F)C(=O)OCCC(CCCCC)CCCCC)N(CCCCCCCC(=O)OCCC(CCCCC)CCCCC)C(=O)CCCN(C)C (stereo not drawn) ?
Marked response: 1.64E+07

Exam item: Note, next up: CCCCCCCCCCN(C(=O)CCCN(C)C)C(CCCCCCCCC)CCCCCCC(F)(F)C(=O)OCCC(CCCCC)CCCCC (stereo not drawn)
Marked response: 2.71E+07

Exam item: Note, next up: CCCCCCCCCCN(C(=O)CCCN(C)C)C(CCCCCCCCC)CCCCCCC(F)C(=O)OCC(CCCCCC)CCCCCCCC (stereo not drawn)
Marked response: 3.26E+07

Exam item: Note, next up: CCCCC/C=C\CCCC(CCC/C=C\CCCCC)C(CCC/C=C\CCCCC)OC(=O)CCCCN(C)C (stereo not drawn) [Compound 13-B43, reference compound]
Marked response: 6.02E+07

Exam item: Note, next up: CCCCCCCCCCC(CCCCCCCC(=O)OCC(CCCCCC)CCCCCCCC)N(CCCCCCCC(=O)OCC(CCCCCC)CCCCCCCC)C(=O)CCCCN(C)C (stereo not drawn)
Marked response: 6.77E+07

Exam item: Note, next up: CCCCCCCCCCC(CCCCCCC(=O)OCCC(CCCCC)CCCCC)N(CCCCCCCCC(=O)OCCC(CCCCC)CCCCC)C(=O)CCCCN(C)C (stereo not drawn)
Marked response: 2.58E+07

Exam item: Note, next up: CCCCCCCCCCC(CCCCCCC(=O)OCCC(CCCCC)CCCCC)N(CCCCCC(F)C(=O)OCCC(CCCCC)CCCCC)C(=O)CCCN(C)C (stereo not drawn)
Marked response: 1.21E+07

Exam item: Note, next up: CCCCCCCCCCC(CCCCCCC(F)(F)C(=O)OCCC(CCCCC)CCCCC)N(CCCCCCCC(=O)OCCC(CCCCC)CCCCC)C(=O)CCCN(C)C (stereo not drawn)
Marked response: 1.18E+06

Exam item: Note, next up: CCCCCCCCCCON(C(=O)CCCN(C)C)C(CCCCCCCCCC)CCCCCCC(F)(F)C(=O)OCCC(CCCCC)CCCCC (stereo not drawn)
Marked response: 4.30E+06

Exam item: Note, next up: CCCCCCCCCCON(C(=O)CCCCN(C)C)C(CCCCCCCCCC)CCCCCC(=O)OCC(CCCCCC)CCCCCCCC (stereo not drawn)
Marked response: 8.09E+07

Exam item: Note, next up: CCCCCCCCCCON(C(=O)CCCN(C)C)C(CCCCCCCCC)CCCCCCC(F)C(=O)OCCC(CCCCC)CCCCC (stereo not drawn)
Marked response: 2.13E+07
